Entries and their measured Kd follow.
- Experimental Target: HDM2_25–117 (Homo sapiens)
- Construct: unnamed fusion partner ('fusion protein'); made in house; host or cells: E. coli BL21
- Sequence (Q00987 25-117): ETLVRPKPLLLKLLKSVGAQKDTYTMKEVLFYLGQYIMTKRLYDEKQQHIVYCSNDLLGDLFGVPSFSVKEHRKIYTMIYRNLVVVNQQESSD
- Protocol Text: direct binding fluorescence polarization assay
- Run Parameters: fluorescein labeled ligand at 10 nM, varying HDM2; read-out: Kd (HDM2/MDM2)
Write the answer as a number in µM, unit excluded.

Ask: Fill blank: measured Kd of the molecule CC(C)CN1C(=O)[C@@H]2C[C@@]3(CN2C(=O)[C@@]12C[C@H]1C(=O)N(Cc4ccc(Cl)c(Cl)c4)[C@]4(C[C@@H]5C(=O)N[C@@H](CCc6ccccc6)C(=O)N5C4)C(=O)N1C2)NC(=O)[C@H](CCCCNC(=S)Nc1ccc2c(c1)C(=O)OC21c2ccc(O)cc2Oc2cc(O)ccc21)NC3=O is ____.
Reply: 6.7

Continuing:
Ask: Fill blank: measured Kd of the molecule CC(C)CN1C(=O)[C@@H]2C[C@@]3(CN2C(=O)[C@@]12C[C@H]1C(=O)N(Cc4ccc(Cl)c(Cl)c4)[C@@]4(C[C@H]5C(=O)N[C@H](CCc6ccccc6)C(=O)N5C4)C(=O)N1C2)NC(=O)[C@H](CCCCNC(=S)Nc1ccc2c(c1)C(=O)OC21c2ccc(O)cc2Oc2cc(O)ccc21)NC3=O is ____.
Reply: 23

Ask: Fill blank: measured Kd of the molecule CC(C)CCN1C(=O)[C@@H]2C[C@@]3(CN2C(=O)[C@@]12C[C@H]1C(=O)N(Cc4ccc(Cl)c(Cl)c4)[C@]4(C[C@H]5C(=O)N[C@@H](Cc6ccccc6)C(=O)N5C4)C(=O)N1C2)NC(=O)[C@H](CCCCNC(=S)Nc1ccc2c(c1)C(=O)OC21c2ccc(O)cc2Oc2cc(O)ccc21)NC3=O is ____.
Reply: 6.3
